Assay: PK and tissue distribution after repeated oral administration in Ba/F3-EPOR-JAK2^V617F tumor-bearing mice
Type: in vivo
Details: BALB/c nude, mouse, kidney, oral, 30 mg/kg; repeated; 0 h; read-out: FM concentration, Kidney
metric.name: concentration at 0 h (ng/g)
Just the number please, in ng/g, no unit attached.

Inquiry: Tell me the measured concentration at 0 h of Cc1cnc(Nc2ccc(N3CCC(N(C)CCO)CC3)c(F)c2)nc1-c1cnn(C(C)C)c1 [FM] , please.
Reply text: 16.6

* * *

Assay: PK and tissue distribution after single oral administration in Ba/F3-EPOR-JAK2^V617F tumor-bearing mice
Assay type: in vivo
Settings: BALB/c nude, mouse, brain, oral, 30 mg/kg; single; 0.5 h; read-out: FM concentration, Brain
metric.name: concentration at 0.5 h

Inquiry: Tell me the measured concentration at 0.5 h of `Cc1cnc(Nc2ccc(N3CCC(N(C)CCO)CC3)c(F)c2)nc1-c1cnn(C(C)C)c1` , please.
Reply text: 354 ng/g

* * *

Experiment: PK and tissue distribution after repeated oral administration in Ba/F3-EPOR-JAK2^V617F tumor-bearing mice
Assay type: in vivo
Conditions: BALB/c nude, mouse, brain, oral, 30 mg/kg; repeated; 4 h; read-out: FM concentration, Brain
metric.name: concentration at 4 h (ng/g)
Just the number please, in ng/g, no unit attached.

Inquiry: Tell me the measured concentration at 4 h of Cc1cnc(Nc2ccc(N3CCC(N(C)CCO)CC3)c(F)c2)nc1-c1cnn(C(C)C)c1 [FM] , please.
Reply text: 492

* * *

Assay: PK and tissue distribution after repeated oral administration in Ba/F3-EPOR-JAK2^V617F tumor-bearing mice
Format: in vivo
Details: BALB/c nude, mouse, heart, oral, 30 mg/kg; repeated; 8 h; read-out: FM concentration, Heart
metric.name: concentration at 8 h (ng/g)
Just the number please, in ng/g, no unit attached.

Inquiry: Tell me the measured concentration at 8 h of Cc1cnc(Nc2ccc(N3CCC(N(C)CCO)CC3)c(F)c2)nc1-c1cnn(C(C)C)c1 [FM] , please.
Reply text: 357

* * *

Test: PK and tissue distribution after single oral administration in Ba/F3-EPOR-JAK2^V617F tumor-bearing mice
Assay type: in vivo
Conditions: BALB/c nude, mouse, intestine, oral, 30 mg/kg; single; 8 h; read-out: FM concentration, Intestine
metric.name: concentration at 8 h (ng/g)
Just the number please, in ng/g, no unit attached.

Inquiry: Tell me the measured concentration at 8 h of Cc1cnc(Nc2ccc(N3CCC(N(C)CCO)CC3)c(F)c2)nc1-c1cnn(C(C)C)c1 [FM] , please.
Reply text: 4360

* * *

Experiment: PK and tissue distribution after repeated oral administration in Ba/F3-EPOR-JAK2^V617F tumor-bearing mice
Format: in vivo
Conditions: BALB/c nude, mouse, spleen, oral, 30 mg/kg; repeated; 1 h; read-out: FM concentration, Spleen
metric.name: concentration at 1 h (ng/g)
Just the number please, in ng/g, no unit attached.

Inquiry: Tell me the measured concentration at 1 h of `Cc1cnc(Nc2ccc(N3CCC(N(C)CCO)CC3)c(F)c2)nc1-c1cnn(C(C)C)c1` , please.
Reply text: 17100

* * *

Test: PK and tissue distribution after single oral administration in Ba/F3-EPOR-JAK2^V617F tumor-bearing mice
Type: in vivo
Details: BALB/c nude, mouse, plasma, oral, 30 mg/kg; single; 12 h; read-out: FM concentration, Plasma
metric.name: concentration at 12 h (ng/mL)
Just the number please, in ng/mL, no unit attached.

Inquiry: Tell me the measured concentration at 12 h of `Cc1cnc(Nc2ccc(N3CCC(N(C)CCO)CC3)c(F)c2)nc1-c1cnn(C(C)C)c1` , please.
Reply text: 61.4
